Entries and their FGFR3/FGFR4 values follow.
TARGET_OR_TEST_SYSTEM: FGFR3 (Homo sapiens (Human), UniProt P22607)
Sequence (P22607 23-806): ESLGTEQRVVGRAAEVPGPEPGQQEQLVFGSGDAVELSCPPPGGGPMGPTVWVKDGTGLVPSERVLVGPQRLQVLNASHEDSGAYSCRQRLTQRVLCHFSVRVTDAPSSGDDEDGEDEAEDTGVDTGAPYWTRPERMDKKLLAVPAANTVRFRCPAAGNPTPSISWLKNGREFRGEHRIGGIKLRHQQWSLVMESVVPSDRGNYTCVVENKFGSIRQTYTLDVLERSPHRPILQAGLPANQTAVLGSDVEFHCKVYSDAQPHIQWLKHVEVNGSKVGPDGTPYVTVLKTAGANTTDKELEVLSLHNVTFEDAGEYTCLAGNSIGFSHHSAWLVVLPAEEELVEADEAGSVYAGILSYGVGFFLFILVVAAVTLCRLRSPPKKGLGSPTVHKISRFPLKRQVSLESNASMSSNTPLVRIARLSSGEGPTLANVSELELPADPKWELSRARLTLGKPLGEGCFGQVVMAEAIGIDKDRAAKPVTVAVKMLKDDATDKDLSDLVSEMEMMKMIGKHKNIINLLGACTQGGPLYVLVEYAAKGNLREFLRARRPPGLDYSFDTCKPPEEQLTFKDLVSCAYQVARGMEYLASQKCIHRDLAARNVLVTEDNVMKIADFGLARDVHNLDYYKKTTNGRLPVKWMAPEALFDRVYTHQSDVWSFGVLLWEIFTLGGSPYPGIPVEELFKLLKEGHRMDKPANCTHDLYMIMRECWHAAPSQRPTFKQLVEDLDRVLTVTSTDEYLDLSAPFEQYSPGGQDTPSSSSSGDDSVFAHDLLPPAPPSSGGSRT
EXPERIMENT_SUMMARY: FGFR Enzymatic Assay (FRET peptide phosphorylation), FGFR3
CONDITION_SET: IC50 ratio showing FGFR4 selectivity; pre-incubated for 4 hours
MEASUREMENT_NAME: FGFR3/FGFR4

{"MOLECULE": "C=CC(=O)Nc1cnn(CCO)c1-c1cc2c(cn1)CN(c1c(F)c(OC)cc(OC)c1F)C(=O)C21CC1 [Example 17]", "ASSAY_VALUE": ">100"}
{"MOLECULE": "C=CC(=O)Nc1cn(CC(=O)N(C)C)nc1-c1cc2c(cn1)CN(c1c(F)c(OC)cc(OC)c1F)C(=O)C21CC1 [Example 36]", "ASSAY_VALUE": ">100"}
{"MOLECULE": "C=CC(=O)Nc1cnn(Cc2ccnn2C)c1-c1cc2c(cn1)CN(c1c(F)c(OC)cc(OC)c1F)C(=O)C21CC1 [Example 26]", "ASSAY_VALUE": ">100"}

----------
Measured FGFR3/FGFR4 accompanies every entry in the list below.
TARGET_OR_TEST_SYSTEM: UniProt P22607
EXPERIMENT_SUMMARY: FGFR Enzymatic Assay (FRET peptide phosphorylation), FGFR3
CONDITION_SET: IC50 ratio showing FGFR4 selectivity; pre-incubated for 5 to 10 minutes

{"COMPOUND": "C=CC(=O)Nc1cc(-c2cc3c(cn2)CN(c2c(F)c(OC)cc(OC)c2F)C(=O)C32CC2)cc(N2CCOCC2)c1 [Example 10]", "FGFR3/FGFR4": ">100"}
{"COMPOUND": "C=CC(=O)Nc1cc(-c2cc3c(cn2)CN(c2c(F)c(OC)cc(OC)c2F)C(=O)C32CC2)c(C)cc1F [Example 6]", "FGFR3/FGFR4": ">100"}
{"COMPOUND": "C=CC(=O)Nc1ccc(C#N)c(-c2cc3c(cn2)CN(c2c(F)c(OC)cc(OC)c2F)C(=O)C32CC2)c1 [Example 5]", "FGFR3/FGFR4": ">100"}
{"COMPOUND": "C=CC(=O)Nc1cc(-c2cc3c(cn2)CN(c2c(F)c(OC)cc(OC)c2F)C(=O)C32CC2)ccc1CN1CCOCC1 [Example 12]", "FGFR3/FGFR4": ">1"}
{"COMPOUND": "C=CC(=O)N1CCCC(c2cc3c(cn2)CN(c2c(F)c(OC)cc(OC)c2F)C(=O)C32CC2)C1 (centres unmarked) [Example 8]", "FGFR3/FGFR4": ">1"}
{"COMPOUND": "C=CC(=O)Nc1cc(CN2CCOCC2)cc(-c2cc3c(cn2)CN(c2c(F)c(OC)cc(OC)c2F)C(=O)C32CC2)c1 [Example 11]", "FGFR3/FGFR4": ">100"}
{"COMPOUND": "C=CC(=O)Nc1ccc(C)c(-c2cc3c(cn2)CN(c2c(F)c(OC)cc(OC)c2F)C(=O)C32CC2)c1 [Example 2]", "FGFR3/FGFR4": ">100"}
{"COMPOUND": "C=CC(=O)Nc1cnc(C)c(-c2cc3c(cn2)CN(c2c(F)c(OC)cc(OC)c2F)C(=O)C32CC2)c1 [Example 7]", "FGFR3/FGFR4": ">100"}
